# target_entity: T1, human GRP receptor (human, UniProt P30550 1-384)
# T1 construct: also called Gastrin-releasing peptide (GRP) receptor; GRP receptors
# method_description: binding affinity (IC50); assay format, labelled ligand and receptor source not described
Here, each record is paired with measured IC50 data.
I only need the number, in nM, no unit after it.

RXQWAVGHXL (not fully specified; N-terminal 3-cyano-4-fluoro-benzoyl group (F is 18F or 19F); Ava (5-aminovaleric acid) spacer; His(3Me) (3-methylhistidine); Sta (statine); C-terminal amide, Synthetic bombesin analog) [3-CN,4-F-Benzoyl-Arg-Ava-Gln-Trp-Ala-Val-Gly-His(3Me)-Sta-Leu-NH2]	1

Now look at this one.
The measured IC50 associated with RXQWAVGHXL (not fully specified; N-terminal 3-cyano-4-fluoro-benzoyl group (F is 18F or 19F); Ava (5-aminovaleric acid) spacer; NMeGly (N-methylglycine); His(3Me) (3-methylhistidine); Sta (statine); C-terminal amide, Synthetic bombesin analog) [4F,3CN-Bnz-Arg-Ava-Gln-Trp-Ala-Val-NMeGly-His(3Me)-Sta-Leu-NH2] reads 2.3
